From: patent US6387893B1

Where a name gives a salt, the structure may show the parent alone.
readout_type: melting point

Some solved entries appear below for comparison.
Q. So what's the measured melting point for this one? O=C1OC[C@H](c2ccc(F)c(F)c2)N1CCCCCCN1CCC2(CC1)c1ccccc1Sc1ccccc12 (as salt: HCl)
A. 90 to 130 °C

Q. Then this compound: COCC1=C(C(=O)OC)[C@H](c2ccc(F)c(F)c2)N(C(=O)NCCCN2CCC3(CC2)c2ccccc2S(=O)(=O)c2ccccc23)C(=O)N1 (as salt: HCl)
A. 158 to 196 °C

Q. Then this compound: `O=C(NCCCN1CCC2(CC1)c1ccccc1Oc1ccccc12)N1C(=O)OC[C@@H]1c1ccc(F)c(F)c1`
A. 138 to 139 °C

For every record below, what is its melting point?
1. O=C(NCCCN1CCC2(CC1)c1ccccc1Sc1ccccc12)N1C(=O)OC[C@@H]1c1ccc(F)c(F)c1 (as salt: HCl)
2. COCC1=C(C(=O)OC)[C@H](c2ccc(F)c(F)c2)N(C(=O)NCCCN2CCC3(CC2)c2ccccc2-c2cccnc23)C(=O)N1 (as salt: hydrochloride)
3. O=C1OC[C@H](c2ccc(F)c(F)c2)N1CCCCCN1CCC2(CC1)c1ccccc1Sc1ccccc12 (as salt: HCl)
4. COCC1=C(C(=O)OC)[C@H](c2ccc(F)c(F)c2)N(C(=O)NCCCN2CCC3(CC2)c2ccccc2[S+]([O-])c2ccccc23)C(=O)N1 (as salt: HCl)
5. O=C(NCCCN1CCC2(CC1)c1ccccc1S(=O)(=O)c1ccccc12)N1C(=O)OC[C@@H]1c1ccc(F)c(F)c1 (as salt: HCl)
6. COCC1=C(C(=O)OC)[C@H](c2ccc(F)c(F)c2)N(C(=O)NCCCN2CCC3(CC2)c2ccccc2-c2ncccc23)C(=O)N1 (as salt: hydrochloride)

A.
140 to 176 °C
201 to 209 °C
90 to 130 °C
185 to 196 °C
158 to 187 °C
157 to 180 °C

For every record below, what is its melting point?
1. O=C1OC[C@H](c2ccc(F)c(F)c2)N1CCCCCN1CCC2(CC1)c1ccccc1CCc1ccccc12 (as salt: hydrochloride)
2. O=C(NCCCN1CCC2(CC1)c1ccccc1CCc1ccccc12)N1C(=O)OC[C@@H]1c1ccc(F)c(F)c1 (as salt: hydrochloride)
3. COCC1=C(C(=O)OC)C(c2ccc(F)c(F)c2)N(C(=O)NCCCN2CCC3(CC2)c2ccccc2Sc2ccccc23)C(=O)N1 (centres unmarked) (as salt: HCl)
4. O=C1OCC(c2ccc(F)c(F)c2)N1CCCCN1CCC2(CC1)c1ccccc1Sc1ccccc12 (centres unmarked) (as salt: HCl)
5. O=C(NCCCN1CCC2(CC1)c1ccccc1[S+]([O-])c1ccccc12)N1C(=O)OC[C@@H]1c1ccc(F)c(F)c1 (as salt: HCl)

A.
["232 to 236 °C", "146 to 177 °C", "140 to 170 °C", "97 to 132 °C", "184 to 193 °C"]
